Provenance of the data: patent US20240383856A1

assay: Single-dose oral pharmacokinetic profile in mice; type: in vivo; conditions: mouse, plasma; male C57BL/6 mice, single oral dose 200 mg/kg
QUANTITY: half-life (min)

• CNC(=O)C(=O)CC[C@H](NC(=O)c1cc(Cl)sc1Cl)C(=O)Nc1cccn(CC(=O)NC2C3CC4CC(C3)CC2C4)c1=O (stereo partly drawn) = 66
• CNC(=O)C(=O)CC[C@H](NC(=O)c1sc(C(F)(F)F)nc1C)C(=O)Nc1cccn(CC(=O)NC2C3CC4CC(C3)CC2C4)c1=O (stereo partly drawn) = 54
• CNC(=O)C(=O)CC[C@H](NC(=O)c1oc2ccccc2c1C)C(=O)Nc1cccn(CC(=O)NC2C3CC4CC(C3)CC2C4)c1=O (stereo partly drawn) = 42

###

assay: logD by shake flask method (octanol / PBS pH 7.4, HPLC); assay type: physicochemical; conditions: octanol / PBS pH 7.4, shake flask
QUANTITY: logD

• CNC(=O)C(=O)CC[C@H](NC(=O)c1sc(C(F)(F)F)nc1C)C(=O)Nc1cccn(CC(=O)N[C@@H]2C[C@@H]3CC[C@H]2C3)c1=O [II-154] = 1 to 3
• Cn1nccc1C(=O)N[C@@H](CCC(=O)C(N)=O)C(=O)Nc1cccn(CC(=O)NC2C3CC4CC(C3)CC2C4)c1=O (stereo partly drawn) [II-144] = < 1
• CNC(=O)C(=O)CC[C@H](NC(=O)c1nc(Br)cs1)C(=O)Nc1cccn(CC(=O)NC2C3CC4CC(C3)CC2C4)c1=O (stereo partly drawn) [II-39] = 1 to 3

###

experiment: logD by shake flask method (octanol / PBS pH 7.4, HPLC); type: physicochemical; conditions: octanol / PBS pH 7.4, shake flask
Listed here: items and their measured logD.
QUANTITY: logD

* CNC(=O)C(=O)CC[C@H](NC(=O)c1c(C)nc2sccn12)C(=O)Nc1cccn(CC(=O)NC2C3CC4CC(C3)CC2C4)c1=O (stereo partly drawn) [II-66] | 1 to 3
* CNC(=O)C(=O)CC[C@H](NC(=O)c1snnc1C)C(=O)Nc1cccn(CC(=O)N[C@@H]2C[C@@H]3CC[C@H]2C3)c1=O [II-156] | < 1
* CC(C)NC(=O)C(=O)CC[C@H](NC(=O)c1cc2ccccc2o1)C(=O)Nc1cccn(CC(=O)NC2C3CC4CC(C3)CC2C4)c1=O (stereo partly drawn) [II-120] | 3 to 5
* CNC(=O)C(=O)CC[C@H](NC(=O)c1snnc1C(C)C)C(=O)Nc1cccn(CC(=O)NC2C3CC4CC(C3)CC2C4)c1=O (stereo partly drawn) [II-203] | 1 to 3
* CNC(=O)C(=O)CC[C@H](NC(=O)c1sc(Br)cc1Br)C(=O)Nc1cccn(CC(=O)NC2C3CC4CC(C3)CC2C4)c1=O (stereo partly drawn) [II-22] | 3 to 5
* CNC(=O)C(=O)CC[C@H](NC(=O)c1cncc([N+](=O)[O-])c1)C(=O)Nc1cccn(CC(=O)NC2C3CC4CC(C3)CC2C4)c1=O (stereo partly drawn) [II-63] | 1 to 3
* CNC(=O)C(=O)CC[C@H](NC(=O)c1ccc(Cl)s1)C(=O)Nc1cccn(CC(=O)NC2C3CC4CC(C3)CC2C4)c1=O (stereo partly drawn) [II-24] | 1 to 3
* CNC(=O)C(=O)CC[C@H](NC(=O)c1oc2ccccc2c1C)C(=O)Nc1cccn(CC(=O)NC2C3CC4CC2CC(F)(C4)C3)c1=O (stereo partly drawn) [II-69] | 1 to 3
* CNC(=O)C(=O)CC[C@H](NC(=O)c1sc(C(F)(F)F)nc1C)C(=O)Nc1cccn(CC(=O)NC2C3CC4CC(C3)CC2C4)c1=O (stereo partly drawn) [II-15] | 1 to 3
* CNC(=O)C(=O)CC[C@H](NC(=O)c1sc(C(F)(F)F)nc1C)C(=O)Nc1cccn(CC(=O)N[C@H]2C[C@H]3CC[C@]2(C)C3(C)C)c1=O [II-159] | 1 to 3
* Cc1nc2ncccc2cc1C(=O)N[C@@H](CCC(=O)C(=O)NC1CCCCC1)C(=O)Nc1cccn(CC(=O)NC23CC(C2)C3)c1=O [II-184] | 1 to 3
* CNC(=O)C(=O)CC[C@H](NC(=O)c1ccc2c(c1)CC(=O)NC2)C(=O)Nc1cccn(CC(=O)NC2(C(=O)O)C3CC4CC2CC(C(F)(F)F)(C4)C3)c1=O (stereo partly drawn) [II-186] | < 1

###

experiment: Caco-2 permeability assay (CacoReady kit); type: in vitro ADME; conditions: human, Caco-2, Caco-2 barrier, CacoReady kit; above 1×10^−6 cm/s classified as permeable
Listed here: items and their measured Papp.
QUANTITY: Papp

- CNC(=O)C(=O)CC[C@H](NC(=O)c1nc(Br)cs1)C(=O)Nc1cccn(CC(=O)NC2C3CC4CC(C3)CC2C4)c1=O (stereo partly shown): 1 to 10 ×10⁻⁶ cm/s
- CNC(=O)C(=O)CC[C@H](NC(=O)c1c[nH]cc1C(C)(C)C)C(=O)Nc1cccn(CCC23CC4CC(CC(C4)C2)C3)c1=O: 1 to 10 ×10⁻⁶ cm/s
- CNC(=O)C(=O)CC[C@H](NC(=O)c1cc2cc(Br)ccc2s1)C(=O)Nc1cccn(CC(=O)NC2C3CC4CC(C3)CC2C4)c1=O (stereo partly shown): 1 to 10 ×10⁻⁶ cm/s
- CNC(=O)C(=O)CC[C@H](NC(=O)c1nonc1N)C(=O)Nc1cccn(CC(=O)NC23CC(C2)C3)c1=O: < 1 ×10⁻⁶ cm/s

###

Listed here: items and their measured Papp.
test: Caco-2 permeability assay (CacoReady kit); assay type: in vitro ADME; conditions: human, Caco-2, Caco-2 barrier, CacoReady kit; above 1×10^−6 cm/s classified as permeable
QUANTITY: Papp

* CNC(=O)C(=O)CC[C@H](NC(=O)c1snnc1C)C(=O)Nc1cccn(CC(=O)N[C@H]2C[C@H]3CC[C@]2(C)C3(C)C)c1=O [II-161] | < 1 ×10⁻⁶ cm/s
* CNC(=O)C(=O)CC[C@H](NC(=O)c1cncn1C)C(=O)Nc1cccn(CC(=O)NC23CC4CC(CC(C4)C2)C3)c1=O [II-207] | < 1 ×10⁻⁶ cm/s
* Cc1c(C(=O)N[C@@H](CCC(=O)C(N)=O)C(=O)Nc2cccn(CC(=O)N[C@@H]3C[C@@H]4CC[C@H]3C4)c2=O)oc2ccccc12 [II-149] | 1 to 10 ×10⁻⁶ cm/s
* CNC(=O)C(=O)CC[C@H](NC(=O)c1c[nH]cn1)C(=O)Nc1cccn(CC(=O)NC[C@@H]2CC[C@@H]3C[C@H]2C3(C)C)c1=O [II-209] | < 1 ×10⁻⁶ cm/s
* CNC(=O)C(=O)CC[C@H](NC(=O)c1oc2ccccc2c1C)C(=O)Nc1cccn(CC2C3CC4CC(C3)CC2C4)c1=O (some centres unmarked) [II-110] | 1 to 10 ×10⁻⁶ cm/s
* CNC(=O)C(=O)CC[C@H](NC(=O)c1cc(Br)c(Br)s1)C(=O)Nc1cccn(CC(=O)NC2C3CC4CC(C3)CC2C4)c1=O (some centres unmarked) [II-45] | 1 to 10 ×10⁻⁶ cm/s
* Cc1c(C(=O)N[C@@H](CCC(=O)C(=O)NC2CC2)C(=O)Nc2cccn(CC(=O)NC3C4CC5CC(C4)CC3C5)c2=O)oc2ccccc12 (some centres unmarked) [II-115] | 1 to 10 ×10⁻⁶ cm/s
* CNC(=O)C(=O)CC[C@H](NC(=O)c1oc2ccccc2c1C)C(=O)Nc1cccn(CC(=O)N[C@@H]2C[C@H]3CC[C@@H]2C3)c1=O [II-94] | 1 to 10 ×10⁻⁶ cm/s

###

Listed here: items and their measured Papp.
assay: Caco-2 permeability assay (CacoReady kit); assay type: in vitro ADME; conditions: human, Caco-2, Caco-2 barrier, CacoReady kit; above 1×10^−6 cm/s classified as permeable
QUANTITY: Papp

* CNC(=O)C(=O)CC[C@H](NC(=O)c1cn[nH]n1)C(=O)Nc1cccn(CC(=O)NC2C3CC4CC(C3)CC2C4)c1=O (stereo partly shown) [II-131] | < 1 ×10⁻⁶ cm/s
* CNC(=O)C(=O)CC[C@H](NC(=O)c1cnc(C(C)C)o1)C(=O)Nc1cccn(CC(=O)NC23CCC(C2)C3)c1=O [II-170] | 1 to 10 ×10⁻⁶ cm/s
* CNC(=O)C(=O)CC[C@H](NC(=O)c1nccn1C)C(=O)Nc1cccn(CC(=O)NC[C@@H]2CC[C@H]3C[C@@H]2C3(C)C)c1=O [II-208] | < 1 ×10⁻⁶ cm/s
* CNC(=O)C(=O)CC[C@H](NC(=O)c1ccc2ccoc2c1)C(=O)Nc1cccn(CC(=O)NC2C3CC4CC2CC(C(N)=O)(C4)C3)c1=O (stereo partly shown) [II-195] | < 1 ×10⁻⁶ cm/s

###

test: logD by shake flask method (octanol / PBS pH 7.4, HPLC); assay type: physicochemical; conditions: octanol / PBS pH 7.4, shake flask
QUANTITY: logD

• CNC(=O)C(=O)CC[C@H](NC(=O)c1c[nH]c(C(N)=O)c1)C(=O)Nc1cccn(CC(=O)NC23CC(C2)C3)c1=O = < 1
• CNC(=O)C(=O)CC[C@H](NC(=O)c1cc(Cl)c(Cl)s1)C(=O)Nc1cccn(CC(=O)NC2C3CC4CC(C3)CC2C4)c1=O (stereo partly shown) = 3 to 5
• CNC(=O)C(=O)CC[C@H](NC(=O)c1c(C)noc1C)C(=O)Nc1cccn(CC(=O)NC2C3CCCC2CC3)c1=O (stereo partly shown) = < 1
• CCc1c(C(=O)N[C@@H](CCC(=O)C(=O)NC2CCCCC2)C(=O)Nc2cccn(CC(=O)NC34CC(C3)C4)c2=O)oc2ccccc12 = 1 to 3
• CNC(=O)C(=O)CC[C@H](NC(=O)c1oc2ccccc2c1C)C(=O)Nc1cccn(CC(=O)NC2C3CC4CC(C3)CC2C4)c1=O (stereo partly shown) = 1 to 3
• CNC(=O)C(=O)CC[C@H](NC(=O)[C@H]1COCCN1)C(=O)Nc1cccn(CC(=O)NC2C3CC4CC(C3)CC2C4)c1=O (stereo partly shown) = < 1
• CNC(=O)C(=O)CC[C@H](NC(=O)c1cc(Cl)sc1Cl)C(=O)Nc1cccn(CC(=O)NC2C3CC4CC(C3)CC2C4)c1=O (stereo partly shown) = 1 to 3
• CNC(=O)C(=O)CC[C@H](NC(=O)c1oc2ccccc2c1C)C(=O)Nc1cccn(CC(=O)NC2C3CC4CC2CC(O)(C4)C3)c1=O (stereo partly shown) = < 1
• CNC(=O)C(=O)CC[C@H](NC(=O)c1oc2ccccc2c1C)C(=O)Nc1cccn(CC23CC4CC(CC(O)(C4)C2)C3)c1=O = 1 to 3
• CNC(=O)C(=O)CC[C@H](NC(=O)c1ncc(OC)o1)C(=O)Nc1cccn(CCC(=O)NC2C3CC4CC(C3)CC2C4)c1=O (stereo partly shown) = 1 to 3
• CNC(=O)C(=O)CC[C@H](NC(=O)c1ccnn1C)C(=O)Nc1cccn(CC(=O)N[C@@H]2C[C@@H]3CC[C@H]2C3)c1=O = < 1
• CNC(=O)C(=O)CC[C@H](NC(=O)c1cc2ccc(N(C)C)cc2o1)C(=O)Nc1cccn(CC(=O)NC23CC(C2)C3)c1=O = < 1
• CNC(=O)C(=O)CC[C@H](NC(=O)c1csc(Cl)n1)C(=O)Nc1cccn(CC(=O)NC2C3CC4CC(C3)CC2C4)c1=O (stereo partly shown) = 1 to 3
• CNC(=O)C(=O)CC[C@H](NC(=O)c1c(I)cnn1C)C(=O)Nc1cccn(CC(=O)NC2C3CC4CC(C3)CC2C4)c1=O (stereo partly shown) = < 1
• CC1(C)[C@@H]2CC[C@@]1(C)[C@@H](NC(=O)Cn1cccc(NC(=O)[C@H](CCC(=O)C(N)=O)NC(=O)c3cc4ccccc4o3)c1=O)C2 = 1 to 3
• CNC(=O)C(=O)CC[C@H](NC(=O)c1ccnn1C)C(=O)Nc1cccn(CC(=O)N[C@H]2C[C@H]3CC[C@]2(C)C3(C)C)c1=O = < 1
